Experiment: Pharmacokinetic profile in rat plasma following oral administration
Type: in vivo
Details: female, rat, po, 0.2 mg/kg, Average of rats
Experimental: The main objectives of this example were: • Quantification of Compound 1, Compound 2, Compound 3 and Laquinimod in rat plasma using LC/MS/MS bioanalytical method. • Characterization of the pharmacokinetic profile of Compound 1, Compound 2, Compound 3 and Laquinimod following oral (PO) administration at a dose of 0.2 mg/kg. • The measurement DELAQ concentrations in the collected plasma samples. […] The actual sampling time were recorded. […]
Recorded AUC(0-inf) values for a group of compounds are listed next.
measurementLabel: AUC(0-inf) (ng·h/mL)

1. [2H]C([2H])([2H])C([2H])([2H])N(C(=O)c1c(O)c2c(Cl)cccc2n(C)c1=O)c1ccccc1 | 12300
2. CCN(C(=O)c1c(O)c2c(Cl)cccc2n(C)c1=O)c1ccccc1 [Laquinimod, reference compound] | 15500
3. [2H]c1c([2H])c([2H])c(N(CC)C(=O)c2c(O)c3c(Cl)cccc3n(C)c2=O)c([2H])c1[2H] | 13800
4. [2H]c1c([2H])c([2H])c(N(C(=O)c2c(O)c3c(Cl)cccc3n(C)c2=O)C([2H])([2H])C([2H])([2H])[2H])c([2H])c1[2H] | 15800
